Where these numbers come from: PubChem BioAssay

Exercise: for every item that follows, state its recorded growth inhibition.
Assay: inhibition of 3D7 malaria parasite growth – strain 3D7 (AID 2306);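 also: 0% = DMSO wells and 100% = chloroquine plus artemisinin control wells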
Conditions: P. falciparum 3D7 erythrocytic growth, LDH absorbance, 72 h; at 2 µM; active compounds read high
State the answer as a number, implicitly in %.

*Q* Quick check: growth inhibition of CC(C)(C)c1ccccc1OC(=O)c1ccccc1 ?
*A* 95

*Q* Quick check: growth inhibition of Nc1ncc(-c2cccc(CCN3CCOCC3)c2)cc1-c1nc2ccc(Br)cc2[nH]1 ?
*A* 101

*Q* Quick check: growth inhibition of COc1ccc(Cl)cc1NC(=O)Nc1ccc2c(c1)CCN(C1CCC1)CC2 ?
*A* 98

*Q* Quick check: growth inhibition of O=S(=O)(c1cc2ccccc2s1)N(CCC(O)(C(F)(F)F)C(F)(F)F)Cc1cccc(O)c1 ?
*A* 100

*Q* Quick check: growth inhibition of O=C(NC1CCCCC1)N(Cc1cccc(-c2cccc(CNC3CCCC3)c2)c1)C1CCN(Cc2ccccc2)CC1 ?
*A* 96

*Q* Quick check: growth inhibition of COc1ccc(NS(=O)(=O)c2cc(NC(=O)Cn3ccccc3=O)ccc2N2CCCCC2)cc1 ?
*A* 92

*Q* Quick check: growth inhibition of CC(=O)N[C@H](C(=O)Nc1ccc(-c2ccc(-c3nc4ccc(C(F)(F)F)cc4[nH]3)cc2)cc1)C(C)C ?
*A* 88

*Q* Quick check: growth inhibition of CN(C)CCOc1cc(NC(=O)Nc2ccc3c(c2)CCCC3=O)ccc1I ?
*A* 94

*Q* Quick check: growth inhibition of CCCCCCN1CCC(NCc2cccc([N+](=O)[O-])c2)CC1 ?
*A* 100

*Q* Quick check: growth inhibition of Cc1cc(C)cc(OCC(O)CN(Cc2cc(Cl)cc(Cl)c2)C(=O)Nc2ccc(Cl)cc2)c1 (centres undefined) ?
*A* 97

*Q* Quick check: growth inhibition of CO/C(=C\C=C\c1cc2cc(Cl)c(Cl)cc2[nH]1)C(=O)NCCCN1CCN(c2cccc(OC)c2)CC1 ?
*A* 100

*Q* Quick check: growth inhibition of Cc1ccc(Cc2cnc(NCCSCc3ccc(CN4CCOCC4)o3)[nH]c2=O)cn1 ?
*A* 95

*Q* Quick check: growth inhibition of COCC(=O)N(Cc1ccccc1-c1cccc(CNCc2ccc3c(c2)OCO3)c1)C1CCN(Cc2ccccc2)CC1 ?
*A* 94

*Q* Quick check: growth inhibition of O=C(Nc1ccc(-c2ccc(-c3nc4ccccc4[nH]3)cc2)cc1)Nc1ccc(Cl)c(Cl)c1 ?
*A* 102

*Q* Quick check: growth inhibition of CCOC(=O)c1ccc(-n2c(C)cc(C=C3SC(=Nc4ccccc4)N(C4CCCC4)C3=O)c2C)cc1 ?
*A* 98

*Q* Quick check: growth inhibition of CS(=O)(=O)N(CC(O)Cn1c2ccc(Cl)cc2c2cc(Cl)ccc21)c1ccccc1 (centres undefined) ?
*A* 101

*Q* Quick check: growth inhibition of N#Cc1cccc(C(=O)Nc2ccc(-c3nc4ccccc4[nH]3)cc2)c1 ?
*A* 91

*Q* Quick check: growth inhibition of CCN(CC)CCN(Cc1ccc(-c2ccc(Br)cc2)cc1)C(=O)Cn1c(CCc2cccc(F)c2F)nc(=O)c2ccccc21 ?
*A* 98

*Q* Quick check: growth inhibition of CN1CCN(c2ccnc3ccc(NC(=O)Nc4c(Cl)cccc4Cl)cc23)CC1 ?
*A* 96

*Q* Quick check: growth inhibition of CC1CCC(C(C)C)C(OC(=O)CSc2nnc3c(n2)[nH]c2ccccc23)C1 (centres undefined) ?
*A* 88

*Q* Quick check: growth inhibition of N#Cc1ccc(NC(=NCc2cccnc2)Nc2ccc(-c3ccccc3)cc2)c(O)c1 ?
*A* 101

*Q* Quick check: growth inhibition of Cc1nc2ccc(NC(=O)Nc3ccnc4ccc(C(F)(F)F)cc34)cc2o1 ?
*A* 89

*Q* Quick check: growth inhibition of O=C(/C=C/c1ccc(Cl)c(Cl)c1)NCCCCCN1CC[C@H](NC(=O)Nc2ccc(Oc3ccccc3)cc2)C1 ?
*A* 100

*Q* Quick check: growth inhibition of CCOC(=O)CN(c1ccc(Br)cc1OCCOc1cc(Br)ccc1N(CC(=O)OCC)C(C)C(=O)OCC)C(C)C(=O)OCC (centres undefined) ?
*A* 94

###

Exercise: for every item that follows, state its recorded growth inhibition.
Assay: antimalarial activity against Dd2 strain (AID 2302);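 also: 0% = DMSO untreated growth and 100% = chloroquine plus artemisinin killed control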
Details: P. falciparum Dd2 in RBCs, LDH growth readout, 72 h; at 2 µM; active compounds read high
State the answer as a number, implicitly in %.

*Q* Quick check: growth inhibition of c1ccc(Oc2ccc(Nc3ccnc(Nc4cccc(CNCCCN5CCOCC5)c4)n3)cc2)cc1 ?
*A* 50

*Q* Quick check: growth inhibition of Fc1cc(Cl)ccc1Nc1ccnc2cc(-c3ccc(CN4CCCCC4)o3)ccc12 ?
*A* 99

*Q* Quick check: growth inhibition of O=C(Nc1ccc(Cn2nc(Cl)c(N3CCCNCC3)cc2=O)cc1)Nc1ccc(-c2ccccc2)cc1 ?
*A* 36

*Q* Quick check: growth inhibition of COC(=O)c1cccc(CNCc2cccc(-c3ccc(-c4nc5c(C)cccc5[nH]4)cc3)c2)c1 ?
*A* 52

###

Test: inhibition of 3D7 malaria parasite growth – strain 3D7 (AID 2306);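 also: 0% = DMSO wells and 100% = chloroquine plus artemisinin control wells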
Details: P. falciparum 3D7 erythrocytic growth, LDH absorbance, 72 h; at 2 µM; active compounds read high
endpoint label: growth inhibition (%)
State the answer as a number, implicitly in %.

*Q* Quick check: growth inhibition of CCc1cccc(OCC2CCCN(c3ccc(C(=O)NC4CC4)cn3)C2)c1 (configuration not stated) ?
*A* 94

*Q* Quick check: growth inhibition of CNCc1ccc(CN(C)c2nc(N)c3cc(OC)c(OC)cc3n2)cc1 ?
*A* 96

*Q* Quick check: growth inhibition of CC(C)COc1ccc(Cl)cc1Cc1ccc(-c2nc3ccc(F)cc3[nH]2)o1 ?
*A* 97

*Q* Quick check: growth inhibition of CCC(Cc1cnc2nc(N)nc(N)c2n1)c1ccc(C(=O)O)cc1 (configuration not stated) ?
*A* 93

*Q* Quick check: growth inhibition of CCCC(=O)NC(c1cccs1)c1cc(Cl)c2cccnc2c1O (configuration not stated) ?
*A* 87

*Q* Quick check: growth inhibition of CCCn1c(Sc2ccc(C#N)c([N+](=O)[O-])c2)nnc1-c1ccc(Cl)cc1 ?
*A* 96

*Q* Quick check: growth inhibition of CC1(C)N=C(N)N=C(N)N1OCCCOc1cc(Cl)cc(Cl)c1 ?
*A* 95

*Q* Quick check: growth inhibition of CN(C)CCCOc1c(C(C)(C)C)cc(-c2cc(C(C)(C)C)c(OCCCN(C)C)c(C(C)(C)C)c2)cc1C(C)(C)C ?
*A* 100

*Q* Quick check: growth inhibition of O=[N+]([O-])c1cccc(C=NNc2ccnc3cc(F)ccc23)c1 ?
*A* 100

*Q* Quick check: growth inhibition of O=C(COc1ccc(C(=O)c2ccccc2)cc1)Nc1nccs1 ?
*A* 94

*Q* Quick check: growth inhibition of Cc1cccc2[nH]c(-c3ccc(-c4cccc(NC(=O)NCc5ccc(F)cc5)c4)cc3)nc12 ?
*A* 101

*Q* Quick check: growth inhibition of Cc1[nH]c(C)c(-c2cccc(-c3ccc(OC(F)(F)F)cc3)c2)c(=O)c1Br ?
*A* 97

###

Experiment: HepG2 cytotoxicity, primary screen, cytotoxicity control for P. falciparum antimalarial project, cell-based, ATP luminescence (AID 2303);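 also: 0% = DMSO wells and 100% = digitonin-killed cells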
Details: HepG2 viability, 24-48 h, at 10 µM, active compounds read high
Criterion: inhibition strictly less than 20%. Met: 1. Not met: 0.

*Q* Check if inhibition falls below 20% for COc1cc2nc(N3CCC(CNC(=O)c4ccc(OC(F)(F)F)cc4)CC3)nc(N)c2cc1OC .
*A* 1

*Q* Check if inhibition falls below 20% for CCc1ccc(NC(=O)N(CCCN2CCN(C)CC2)Cc2csc(-c3ccc(CNCc4ccccc4)cc3)n2)cc1 .
*A* 1

*Q* Check if inhibition falls below 20% for c1cnc2ccc(NCc3ccc(-c4ccc(CNC5CCCC5)cc4)cc3)cc2c1 .
*A* 0

*Q* Check if inhibition falls below 20% for O=C(Nc1ccc(C(F)(F)F)cc1)c1ccc(S(=O)(=O)NCC2CCCN(CC3CCCCC3)C2)cc1 (configuration not stated) .
*A* 0

*Q* Check if inhibition falls below 20% for CCOc1c(C)cc(C(F)(F)F)cc1CNCCCNc1cc(=O)c2ccccc2[nH]1 .
*A* 1

*Q* Check if inhibition falls below 20% for CCCOc1cc(Cc2cnc(N)nc2N)cc(OC)c1OC .
*A* 0

*Q* Check if inhibition falls below 20% for CCCN(CCC)CCCCC(C)Nc1c2ccc(Cl)cc2nc2ccc(OC)cc12 (configuration not stated) .
*A* 0

*Q* Check if inhibition falls below 20% for CC1(C)N=C(N)N=C(N)N1OCc1cc2ccccc2cc1CON1C(N)=NC(N)=NC1(C)C .
*A* 1

*Q* Check if inhibition falls below 20% for O=C(NCc1cccc2ccccc12)C(c1cc2ccccc2o1)N1CCN(C(c2ccccc2)c2ccccc2)CC1 (configuration not stated) .
*A* 1

*Q* Check if inhibition falls below 20% for Cc1nnc(NC(=O)c2cn(-c3ccccc3)nc2-c2ccccc2C)o1 .
*A* 0

*Q* Check if inhibition falls below 20% for COc1ccc(NC(=O)[C@H](CC(C)C)Nc2cc(C)nc(NCc3cccc(C)c3)n2)cc1 .
*A* 0

*Q* Check if inhibition falls below 20% for COc1ccc2nccc([C@@H](O)CN3CCC(NCCOc4ccc(F)cc4[N+](=O)[O-])CC3)c2c1 .
*A* 1
